Consider compounds characterized by their pKd with FLT3(JMminus) (Homo sapiens, UniProt P36888).
pKd: −log10 of the molar value.

1. Cc1nn(C)c(Cl)c1C(=O)Nc1ccc(CC(=O)Nc2cc(C(C)(C)C)on2)cc1: > 7.00

Query compound follows.
// lookup pKd for CC(C)(C)c1cc(NC(=O)Cc2ccc(NC(=O)c3cccc4cccnc34)cc2)no1
6.00 to 7.00

====

system: MV4,11 cells; assay: Cell Assay: CS0001, FLT3 assay using MV4,11 cells (MTS proliferation); type: cell-based; conditions: Homo sapiens
pIC50: −log10 of the molar value.
Catalogue of pIC50 readings, one per entry.

// lookup pIC50 for CC(C)(C)c1cc(-c2nc(-c3ccc(O)cc3)no2)no1
5.00 to 6.00

How about CC(C)(C)c1cc(NC(=O)Cc2ccc(NC(=O)c3cnc4ccccc4c3)cc2)no1 ?
> 7.00

How about CC(C)(C)c1cc(NC(=O)Cc2ccc(NC(=O)c3cccc4cccnc34)cc2)no1 ?
5.00 to 6.00

How about Cc1noc(-c2ccc(-c3noc(-c4cc(C(C)(C)C)on4)n3)cc2)n1 ?
< 5.00

How about CC(C)(C)c1cc(/C=N/C(=N\O)c2ccc(Cl)cc2)no1 ?
5.00 to 6.00

How about CC(C)(C)c1cc(-c2nc(-c3ccc(Cl)cc3)no2)no1 ?
< 5.00

====

Molecular target: FLT3(DKIN) (Homo sapiens)
Construct: 3(DKIN); made in house
Sequence (P36888 610-943 limits assumed): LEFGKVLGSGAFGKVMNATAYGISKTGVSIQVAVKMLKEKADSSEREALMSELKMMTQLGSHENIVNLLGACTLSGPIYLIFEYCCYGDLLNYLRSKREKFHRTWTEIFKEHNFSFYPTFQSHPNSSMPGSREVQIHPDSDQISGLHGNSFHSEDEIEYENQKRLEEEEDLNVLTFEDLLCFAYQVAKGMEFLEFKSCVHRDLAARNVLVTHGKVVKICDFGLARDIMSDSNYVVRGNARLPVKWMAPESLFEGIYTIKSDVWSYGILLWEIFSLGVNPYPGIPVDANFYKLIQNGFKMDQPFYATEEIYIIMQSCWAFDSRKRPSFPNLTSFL
Assay: Binding Assay: FLT3(DKIN), phage-displayed kinase competition binding (Kd)
VALUE TYPE: Kd

As a guide, the following entries are already answered.
1. O=C(Cc1ccc(OCc2ccccc2)cc1)Nc1nc2cc(Cl)ccc2o1: 100 to 1000 nM
2. CC(C)(C)c1cc(NC(=O)Cc2ccc(Br)cc2)on1: < 100 nM
3. CC(C)(C)c1cc(NC(=O)Cc2ccc(F)cc2)on1: < 100 nM

// lookup Kd for O=C(Cc1ccc(OCc2ccccc2)cc1)Nc1cc(C2CC2)nn1-c1ccccc1
100 to 1000 nM

How about CC(C)(C)c1cc(-c2nc(-c3ccc(Cl)cc3)no2)no1 ?
> 10000 nM

How about CC(C)(C)c1cc(NC(=O)Cc2ccc(O)cc2)no1 ?
100 to 1000 nM

How about CC(C)(C)c1cc(/C=N/C(=N\O)c2ccc(Cl)cc2)no1 ?
1000 to 10000 nM

How about CC(C)(C)c1cc(-c2nc(-c3ccc(OCc4ccccc4F)cc3)no2)no1 ?
> 10000 nM

How about CC(C)(C)c1cc(-c2nc(-c3ccc(O)cc3)no2)no1 ?
> 10000 nM

How about CC(C)(C)c1cc(NC(=O)Sc2ccc(Cl)cc2)no1 ?
1000 to 10000 nM

How about COc1ccc(SC(=O)Nc2cc(C(C)(C)C)on2)cc1 ?
1000 to 10000 nM

How about Cc1ccc(NC(=O)c2ccc(-c3noc(-c4cc(C(C)(C)C)on4)n3)cc2)cc1 ?
> 10000 nM

How about COc1ccc(CC(=O)Nc2cc(C(C)(C)C)no2)cc1 ?
< 100 nM

====

test system: MV4,11 cells; assay: Cell Assay: CS0001, FLT3 assay using MV4,11 cells (MTS proliferation); format: cell-based; settings: Homo sapiens
Catalogue of IC50 readings, one per entry.

1) CSc1ncc(Br)c(C(=O)Nc2ccc(CC(=O)Nc3cc(C(C)(C)C)on3)cc2)n1: < 100 nM
2) Cn1cc(C(=O)Nc2ccc(CC(=O)Nc3cc(C(C)(C)C)on3)cc2)c2ccccc21: < 100 nM
3) CC(C)(C)c1cc(C(=O)Nc2ccc(OCC3CC3)cc2)no1: 1000 to 10000 nM

// lookup IC50 for Cc1nn(C)c(Cl)c1C(=O)Nc1ccc(CC(=O)Nc2cc(C(C)(C)C)on2)cc1
100 to 1000 nM
